Each entry below carries its reported IC50.
- System: Vero
- ASSAY METHOD TEXT: Cytotoxicity against african green monkey Vero cells after 72 hrs by MTT assay
- Type: cell-based
- STUDY CONDITIONS: Chlorocebus sabaeus

Completed entries (count: 5):
Cc1c(C(=O)NCc2ccccc2)[n+]([O-])c2cc(F)c(F)cc2[n+]1[O-] ... 18.4 µg/mL
Cc1c(C(=O)NCc2ccccc2)[n+]([O-])c2cc(Cl)ccc2[n+]1[O-] ... > 100 µg/mL
Cc1ccc2c(c1)[n+]([O-])c(C(=O)NCc1ccccc1)c(C)[n+]2[O-] ... > 100 µg/mL
Cc1c(C(=O)NCc2ccccc2)[n+]([O-])c2cc(F)ccc2[n+]1[O-] ... > 100 µg/mL
CO[C@H]1/C=C/O[C@@]2(C)Oc3c(C)c(O)c4c(O)c(c(/C=N/N5CCN(C)CC5)c(O)c4c3C2=O)NC(=O)/C(C)=C\C=C\[C@H](C)[C@H](O)[C@@H](C)[C@@H](O)[C@@H](C)[C@H](OC(C)=O)[C@@H]1C [RIFAMPIN] ... > 100 µg/mL

input: Report IC50 for COc1ccc(CNC(=O)c2c(C)[n+]([O-])c3ccc(C(F)(F)F)cc3[n+]2[O-])cc1
output: > 30 µg/mL

input: Report IC50 for COc1ccc(CCNC(=O)c2c(C)[n+]([O-])c3ccc(Cl)cc3[n+]2[O-])cc1
output: > 30 µg/mL

input: Report IC50 for COc1ccc(CNC(=O)c2c(C)[n+]([O-])c3ccc(F)cc3[n+]2[O-])cc1
output: > 30 µg/mL

----------
- Tested on: Vero
- ASSAY METHOD TEXT: Cytotoxicity against african green monkey Vero cells after 72 hrs by MTT assay
- Type: cell-based
- STUDY CONDITIONS: Chlorocebus sabaeus
OBSERVABLE: IC50

Completed entries (count: 5):
Cc1c(C(=O)NCCc2ccccc2)[n+]([O-])c2cc(Cl)ccc2[n+]1[O-] ... > 100 µg/mL
Cc1c(C(=O)NCc2ccccc2)[n+]([O-])c2cc(C(F)(F)F)ccc2[n+]1[O-] ... > 100 µg/mL
Cc1c(C(=O)NCc2ccccc2)[n+]([O-])c2ccccc2[n+]1[O-] ... > 100 µg/mL
COc1ccc(CCNC(=O)c2c(C)[n+]([O-])c3ccccc3[n+]2[O-])cc1 ... > 30 µg/mL
COc1ccc(CCNC(=O)c2c(C)[n+]([O-])c3cc(Cl)c(Cl)cc3[n+]2[O-])cc1 ... > 30 µg/mL

input: Report IC50 for COc1ccc(CNC(=O)c2c(C)[n+]([O-])c3cc(F)c(F)cc3[n+]2[O-])cc1
output: 16.6 µg/mL

input: Report IC50 for COc1ccc(CNC(=O)c2c(C)[n+]([O-])c3ccccc3[n+]2[O-])cc1
output: > 30 µg/mL

input: Report IC50 for COc1ccc(CCNC(=O)c2c(C)[n+]([O-])c3ccc(F)cc3[n+]2[O-])cc1
output: > 30 µg/mL

input: Report IC50 for COc1ccc(CCNC(=O)c2c(C)[n+]([O-])c3ccc(C(F)(F)F)cc3[n+]2[O-])cc1
output: > 30 µg/mL

input: Report IC50 for Cc1c(C(=O)NCCc2ccccc2)[n+]([O-])c2ccccc2[n+]1[O-]
output: > 100 µg/mL

The measurements presented in this section are drawn from ChEMBL document CHEMBL1156982.
